assay: Human HepG2 cell viability assay in 384 well format; format: toxicity, cell-based; parameters: dose 125 nL, time 70.5 hour; concentration not given beside the values; conditions: HepG2 cells, read-out: Inhibition
METRIC_NAME: cytotoxicity at 70.5 h
A complete answer gives the number and then names the unit.

Consider the worked cases shown below.
CC(O)CN1CCC(CNCc2ccc(C#N)cc2)CC1 (stereo not drawn) ... 0.277%
O=C(N1CCCC1)N1CCN(CC2CC2)c2ncccc2C1 ... 6.34%
CNC(=O)[C@H]1C[C@@H]2CN(S(=O)(=O)c3ccccc3)C[C@@H]2N1C ... -8.21%
CCOc1c(Cl)cccc1NS(=O)(=O)c1cc(C)c(C(=O)O)s1 ... -4.74%
CCN(CC)CCNC(=O)CCc1c(C)nn(-c2ccccc2Br)c1C ... 8.21%
CN1C(=O)CCN(C(=O)C2CCCCC2)c2ccccc21 ... 9.73%
O=C(NCC1CCN(Cc2ccsc2)CC1)NC1CC1 ... 1.34%
Cc1cnn(CCCNCc2csc(COc3ccccc3)n2)c1 ... -3.68%

Give cytotoxicity at 70.5 h for each listed item.
1. CSCC(=O)N1CCCC(CO)(CC2CC2)C1 (stereo not drawn)
2. CCCS(=O)(=O)N1CCC(NCc2c(C)nn(C)c2OC)CC1
3. Cc1nccn1CCC1CCCCN1Cc1ccncc1 (stereo not drawn)

Output:
-11%
-7.02%
3.75%

Hey, can you go through the list below and give me cytotoxicity at 70.5 h for every item?
1. COCCn1cc2c(n1)C(CNCc1cccc(OC)c1)OCC2 (stereo not drawn)
2. CCc1c(C)nc(N)nc1N1CCCC(c2nc(CCOC)no2)C1 (stereo not drawn)
3. CCN1CCO[C@]2(CCC[C@H]2COCc2csc(C)n2)C1
4. c1ccc(OCc2n[nH]c3c2CN(CC2CC2)C3)nc1
5. COc1ccccc1Cc1nnc(SCCS(C)(=O)=O)o1
6. COCCN1CCN(CC2(O)CCCCC2)CC1
7. CN(C)CCOCc1cncc2c1CCN(C(=O)c1cscn1)C2
8. O=S1(=O)C[C@@H]2[C@H](C1)N(Cc1ncc[nH]1)CCN2CCCc1ccccc1

Output:
1. 20.4%
2. 4.51%
3. -7.19%
4. -2.5%
5. -7.42%
6. -0.488%
7. -3.85%
8. -1.68%

Give cytotoxicity at 70.5 h for each listed item.
1. Cc1cnn(CC2CN(CC(=O)Nc3nncs3)CCO2)c1 (stereo not drawn)
2. Cc1ccc(C(=O)N(C2CC2)C2CC(=O)NC2=O)cc1F (stereo not drawn)
3. CC(=O)N1N=C(c2ccco2)OC1C(=O)NCC(C)C (stereo not drawn)
4. CC1(C2CCN(CC(N)=O)CC2)CN(Cc2ccccc2)C(=O)O1 (stereo not drawn)
5. CCCc1nnc(NC(C)c2ccc3c(c2)OCCO3)o1 (stereo not drawn)
6. Cc1ncc(CN2CCC(O)(c3ccccc3F)CC2)cn1

Output:
["-1.53%", "-3.53%", "-4.23%", "-5.3%", "19.1%", "-0.616%"]
